# protocol-details: Cell Viability - LYMP1-002 - Assay at 40 hr (AID 994); note: nearly all actives have a fitted effect of over 60% in size
# test-parameters: LYMP1-002 lymphoblastoid cell viability; series mostly up to 92.2 µM
Inconclusive results are not listed. Calls of active or inactive are those of the source. Calls come from the whole dose curve; as a rule, active = well fitted cell-killing curve with a large enough effect; inconclusive = small, poorly fitted or top-dose-only effect; inactive = flat fitted curve, though single readings scatter.
Returns: one label drawn from T for active, F for inactive

Example results:
INSERT INTO results (smiles_notation, category_label) VALUES
  ('N[C@@H](Cc1ccc(N(CCCl)CCCl)cc1)C(=O)O', 'F'),
  ('c1ccc2c(c1)Nc1ccccc1S2', 'F'),
  ('Oc1ccc(Cl)cc1Cc1ccccc1', 'F'),
  ('CC(=O)Oc1ccccc1C(=O)Nc1ncc([N+](=O)[O-])s1', 'T'),
  ('CCOP(=S)(OCC)Oc1cc(C)nc(C(C)C)n1', 'F');

// switching to the query compound
// outcome(item) with item = `OCCOc1ccccc1`
F

// provenance: PubChem BioAssay (NCATS)
